test.details: Drug concentration in plasma of C57BL6 mouse at 3 mg/kg, sc
Assay type: ADME, organism-based
measurement.context: in vivo

| structure.smiles | concentration [nM] |
| --- | --- |
| CC(C)C[C@@H](N)C(=O)Nc1ccc(-c2cnco2)c(OC(F)F)c1 | 2600 |

---

test.details: Drug concentration in plasma of Sprague-Dawley rat model of chronic constriction injury-induced neuropathic pain at 1 mg/kg, sc
Format: ADME, organism-based
measurement.context: in vivo
measured.endpoint: concentration (nM)

| structure.smiles | readout.value |
| --- | --- |
| CC(C)C[C@@H](N)C(=O)Nc1ccc(-c2cnco2)c(OC(F)F)c1 | 400 |

---

test.details: Permeability of the compound at pH 5.5 incubated for 4 hrs by PAMPA-based UV spectrophotometry
Format: ADME
measurement.context: read-out: permeability
API: label(entry) gives Criterion met if the entry's Papp at 4 h is strictly smaller than 50 ×10⁻⁶ cm/s; on equality or larger values it gives Criterion not met.

| compound | classification |
| --- | --- |
| CC(C(=O)O)c1cccc(C(=O)c2ccccc2)c1 (stereo not given) [KETOPROFEN] | Criterion met |
| CC(C)C[C@@H](N)C(=O)Nc1ccc(-c2cnco2)c(OC(F)F)c1 | Criterion not met |
| COc1cc(NC(=O)[C@@H]2NCCC[C@@H]2C(C)C)ccc1-c1cnco1 | Criterion met |
| COc1cc(NC(=O)[C@H](N)CC(C)C)ccc1-c1cnco1 | Criterion not met |
| COCCc1ccc(OCC(O)CNC(C)C)cc1 (stereo not given) [METOPROLOL] | Criterion met |

---

test.details: Permeability of the compound at pH 7.4 incubated for 4 hrs by PAMPA-based UV spectrophotometry
Assay type: ADME
measurement.context: PAMPA, pH 7.4, read-out: permeability

| molecule | Papp at 4 h |
| --- | --- |
| COc1cc(NC(=O)[C@@H]2NCCC[C@@H]2C(C)C)ccc1-c1cnco1 | 43.5 ×10⁻⁶ cm/s |
| CC(C)C[C@@H](N)C(=O)Nc1ccc(-c2cnco2)c(OC(F)F)c1 | 96.7 ×10⁻⁶ cm/s |
| COc1cc(NC(=O)[C@H](N)CC(C)C)ccc1-c1cnco1 | 58.4 ×10⁻⁶ cm/s |
| CC(C(=O)O)c1cccc(C(=O)c2ccccc2)c1 (centres undefined) | 1.1 ×10⁻⁶ cm/s |

---

target.of.assay: UniProtKB O14578
Sequence (O14578 whole entry): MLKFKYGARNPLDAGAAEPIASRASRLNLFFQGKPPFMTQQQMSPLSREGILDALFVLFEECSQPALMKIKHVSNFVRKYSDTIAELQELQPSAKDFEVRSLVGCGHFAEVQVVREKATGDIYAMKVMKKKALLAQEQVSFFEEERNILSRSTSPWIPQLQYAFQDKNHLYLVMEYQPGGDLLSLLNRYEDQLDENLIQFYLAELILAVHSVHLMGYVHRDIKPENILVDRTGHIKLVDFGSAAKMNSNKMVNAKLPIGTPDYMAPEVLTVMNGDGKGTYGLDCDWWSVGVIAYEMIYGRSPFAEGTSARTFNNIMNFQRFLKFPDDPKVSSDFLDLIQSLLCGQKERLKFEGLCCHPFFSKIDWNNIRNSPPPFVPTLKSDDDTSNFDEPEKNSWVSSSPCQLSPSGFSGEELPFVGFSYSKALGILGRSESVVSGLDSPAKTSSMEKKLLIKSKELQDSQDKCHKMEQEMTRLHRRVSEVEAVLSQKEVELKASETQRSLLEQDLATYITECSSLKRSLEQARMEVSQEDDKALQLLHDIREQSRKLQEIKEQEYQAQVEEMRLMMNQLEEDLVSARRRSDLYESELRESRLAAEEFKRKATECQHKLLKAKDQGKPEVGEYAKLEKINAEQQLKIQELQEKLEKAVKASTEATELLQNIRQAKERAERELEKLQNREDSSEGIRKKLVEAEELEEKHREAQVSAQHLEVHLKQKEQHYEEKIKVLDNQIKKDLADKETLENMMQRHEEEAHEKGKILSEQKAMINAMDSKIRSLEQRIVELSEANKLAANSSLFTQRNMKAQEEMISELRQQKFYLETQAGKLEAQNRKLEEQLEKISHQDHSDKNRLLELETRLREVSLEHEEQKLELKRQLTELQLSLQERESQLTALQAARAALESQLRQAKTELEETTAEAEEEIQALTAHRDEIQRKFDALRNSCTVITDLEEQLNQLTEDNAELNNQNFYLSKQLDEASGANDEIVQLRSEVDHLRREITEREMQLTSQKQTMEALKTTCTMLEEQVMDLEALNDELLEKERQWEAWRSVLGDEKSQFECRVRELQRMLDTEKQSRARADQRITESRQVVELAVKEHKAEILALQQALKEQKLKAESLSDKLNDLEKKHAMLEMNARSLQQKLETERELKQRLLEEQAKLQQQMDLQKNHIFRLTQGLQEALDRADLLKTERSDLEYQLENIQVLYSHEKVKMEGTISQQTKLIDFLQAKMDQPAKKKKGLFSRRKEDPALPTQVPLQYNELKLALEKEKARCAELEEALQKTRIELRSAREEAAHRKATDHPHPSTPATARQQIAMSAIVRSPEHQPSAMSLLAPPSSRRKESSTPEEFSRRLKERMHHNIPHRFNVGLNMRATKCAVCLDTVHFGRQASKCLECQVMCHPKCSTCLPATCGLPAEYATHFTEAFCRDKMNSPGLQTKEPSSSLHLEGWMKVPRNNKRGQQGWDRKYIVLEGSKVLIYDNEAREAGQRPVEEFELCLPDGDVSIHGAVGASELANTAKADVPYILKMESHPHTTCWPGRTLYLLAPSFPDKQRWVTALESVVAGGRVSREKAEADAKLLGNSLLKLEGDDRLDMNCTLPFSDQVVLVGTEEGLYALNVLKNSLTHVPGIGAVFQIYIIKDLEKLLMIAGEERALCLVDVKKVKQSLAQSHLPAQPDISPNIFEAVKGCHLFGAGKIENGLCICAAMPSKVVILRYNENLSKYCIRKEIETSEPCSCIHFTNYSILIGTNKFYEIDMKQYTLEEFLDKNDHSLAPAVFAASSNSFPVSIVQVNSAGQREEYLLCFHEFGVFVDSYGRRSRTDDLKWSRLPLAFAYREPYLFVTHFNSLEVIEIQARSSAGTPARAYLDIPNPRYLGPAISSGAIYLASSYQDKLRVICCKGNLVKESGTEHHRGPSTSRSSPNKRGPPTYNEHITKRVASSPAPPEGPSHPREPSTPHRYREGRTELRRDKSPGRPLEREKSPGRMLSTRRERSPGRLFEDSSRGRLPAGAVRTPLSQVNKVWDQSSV
pIC50: −log10 of the molar value.

| structure.smiles | target.of.assay | pIC50 |
| --- | --- | --- |
| CC(C)C[C@@H](N)C(=O)Nc1ccc(-c2cnco2)c(OC(F)F)c1 | UniProtKB O14578 | 6.92 |

---

test.details: Metabolic stability in rat liver microsomes assessed as parent compound remaining at 0.5 uM incubated for 10 mins in presence of NADPH by LC-MS/MS analysis
Format: ADME, Microsome
measurement.context: read-out: Stability
remaining at 10 min, 0.5 µM less than 60% is Satisfied; remaining at 10 min, 0.5 µM greater than or equal to 60% is Not satisfied.

| structure.smiles | classification |
| --- | --- |
| COc1cc(NC(=O)[C@H](N)[C@H](C)O)ccc1-c1cnco1 | Not satisfied |
| CC(C)C[C@@H](N)C(=O)Nc1ccc(-c2cnco2)c(OC(F)(F)F)c1 | Not satisfied |
| COc1cc(NC(=O)[C@H](N)CC(C)(C)C)ccc1-c1cnco1 | Not satisfied |
| COc1cc(NC(=O)Cc2ccccc2)ccc1-c1cnco1 | Not satisfied |
| CC[C@@H](C)[C@@H](N)C(=O)Nc1ccc(-c2cnco2)c(OC)c1 | Not satisfied |
| COc1cc(NC(=O)CCC(C)C)ccc1-c1cnco1 | Satisfied |
| COc1cc(NC(=O)[C@H](N)CC(C)C)ccc1-c1cn[nH]c1 | Not satisfied |
| Cc1cc(NC(=O)[C@H](N)CC(C)C)ccc1-c1cnco1 | Not satisfied |
| COc1cc(NC(=O)[C@@H]2NCCC[C@@H]2C(C)C)ccc1-c1cnco1 | Satisfied |
| COc1cc(NC(=O)[C@H](N)CC(C)C)ccc1-c1cncs1 | Not satisfied |
| CC[C@@H](N)C(=O)Nc1ccc(-c2cnco2)c(OC)c1 | Not satisfied |
| COc1cc(NC(=O)[C@@H](C)N)ccc1-c1cnco1 | Not satisfied |
| COc1cc(NC(=O)[C@H]2CCCCN2)ccc1-c1cnco1 | Satisfied |
| CN[C@H](CC(C)C)C(=O)Nc1ccc(-c2cnco2)c(OC)c1 | Satisfied |
| CC(C)C[C@@H](N)C(=O)Nc1ccc(-c2ccncc2)cc1 | Not satisfied |
